PROTOCOL_NOTES: DRUGMATRIX: Glutamate, Kainate radioligand binding (ligand: [3H] Kainic acid)
Format: cell membranes, Rattus norvegicus, Wistar, Brain, Membrane
CONDITIONS_USED: Not Active = under 50% inhibition at 10 µM

MOLECULE	Ki
C#CC1(O)CC[C@H]2[C@@H]3CCC4=CC(=O)CC[C@@H]4[C@H]3CC[C@@]21CC (stereo partly drawn) [NORGESTREL]	Not Active
CC(=O)O[C@H]1C(=O)[C@@]2(C)[C@H]([C@H](OC(=O)c3ccccc3)[C@]3(O)C[C@H](OC(=O)[C@H](O)[C@@H](NC(=O)c4ccccc4)c4ccccc4)C(C)=C1C3(C)C)[C@]1(OC(C)=O)CO[C@@H]1C[C@@H]2O [PACLITAXEL]	Not Active
Oc1c(Cl)cc(Cl)c(Cl)c1Cc1c(O)c(Cl)cc(Cl)c1Cl [HEXACHLOROPHENE]	Not Active

* * *

SUBJECT_OF_TEST: Cytochrome P450 2C9 (Homo sapiens)
Sequence (P11712 whole entry): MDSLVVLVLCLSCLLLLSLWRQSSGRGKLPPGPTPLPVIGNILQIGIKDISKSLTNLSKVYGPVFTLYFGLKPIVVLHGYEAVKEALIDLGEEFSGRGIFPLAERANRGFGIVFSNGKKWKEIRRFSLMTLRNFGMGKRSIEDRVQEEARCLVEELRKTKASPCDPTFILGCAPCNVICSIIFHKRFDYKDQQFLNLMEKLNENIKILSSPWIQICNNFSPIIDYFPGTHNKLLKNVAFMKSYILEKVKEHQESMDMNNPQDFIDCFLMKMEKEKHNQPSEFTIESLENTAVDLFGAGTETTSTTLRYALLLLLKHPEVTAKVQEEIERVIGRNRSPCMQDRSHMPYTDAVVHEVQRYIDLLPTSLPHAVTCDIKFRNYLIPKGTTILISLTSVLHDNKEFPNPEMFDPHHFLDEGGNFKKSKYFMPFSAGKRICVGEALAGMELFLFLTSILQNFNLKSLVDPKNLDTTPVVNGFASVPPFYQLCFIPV
CONDITIONS_USED: bti-tn-5b1-4
EXPERIMENTAL_ENDPOINT: Ki

Consider the reported Ki for these compounds:
COMPOUND	Ki
O=c1cc(N2CCOCC2)oc2c(-c3ccccc3)cccc12 [LY-294002]	Not Active
O=C(O)c1cccnc1Nc1cccc(C(F)(F)F)c1 [NIFLUMIC ACID]	Not Active
C=CCc1ccc(O)c(OC)c1 [EUGENOL]	Not Active
Nc1ccn([C@@H]2O[C@H](CO)[C@@H](O)C2(F)F)c(=O)n1 [GEMCITABINE]	Not Active
N#Cc1ccc(C(c2ccc(C#N)cc2)n2cncn2)cc1 [LETROZOLE]	Not Active

Please go through the list and note Ki for each compound.
1. COc1ccc(C2C(=O)c3ccccc3C2=O)cc1 [ANISINDIONE]
2. CC(C(=O)O)c1cccc(Oc2ccccc2)c1 (centres undefined) [FENOPROFEN]

["Not Active", "Not Active"]

Respectfully, I request Ki for each entry included below.
1. O=C1C(CC[S+]([O-])c2ccccc2)C(=O)N(c2ccccc2)N1c1ccccc1 (centres undefined) [SULFINPYRAZONE]
2. Cn1c(=O)c2c(ncn2CC(O)CO)n(C)c1=O (centres undefined) [DYPHYLLINE]
3. CCN(CC)CCNC(=O)c1cc(S(C)(=O)=O)ccc1OC [TIAPRIDE]
4. CO[C@H]1/C=C/O[C@@]2(C)Oc3c(C)c(O)c4c(O)c(c(/C=N/N5CCN(C6CCCC6)CC5)c(O)c4c3C2=O)NC(=O)/C(C)=C\C=C\[C@H](C)[C@H](O)[C@@H](C)[C@@H](O)[C@@H](C)[C@H](OC(C)=O)[C@@H]1C [RIFAPENTINE]
5. Nc1ccc2c3c(cccc13)C(=O)NC2=O
6. O=C(Oc1ccccc1C(=O)O)c1ccccc1O [SALSALATE]
7. CCN1CCC[C@H]1CNC(=O)c1cc(S(N)(=O)=O)ccc1OC [LEVOSULPIRIDE]

1: Not Active; 2: Not Active; 3: Not Active; 4: Not Active; 5: Not Active; 6: Not Active; 7: Not Active

* * *

PROTOCOL_NOTES: DRUGMATRIX: ATPase, Na+/K+ enzyme inhibition (substrate: ATP)
Format: tissue-based, Sus scrofa, Heart
CONDITIONS_USED: Not Active = under 50% inhibition at 10 µM
EXPERIMENTAL_ENDPOINT: IC50

The following sequences have reported results that may help.
RESIDUE_STRING	IC50
GADOPENTETATE DIMEGLUMINE	Not Active
AURANOFIN	Not Active
MANGANESE CHLORIDE ANHYDROUS	Not Active
NYSTATIN	Not Active

The record that follows has no IC50 shown yet.
Entry `GENTAMICIN` : reported IC50 = ? Not Active
